# test: Cytotoxicity dose response in HEp-2 cells (Cell Titer Glo)
# Format: cell-based
# applied.conditions: human, HEp-2, 8 point dose response, duplicate
experimental.readout: CC50 at 6 days

INSERT INTO assay_data (item_smiles, experimental_readout, recorded_result) VALUES
  ('NC(=O)c1ncn([C@@H]2O[C@H](CO)[C@@H](O)[C@H]2O)n1', 'CC50 at 6 days', '~75 µM');
